Reported pKd by item:
Biological target: Sa Hfq (Staphylococcus aureus, UniProt A0A0H3JV59 1-77)
Assay: fluorescence polarization
pKd: −log10 of the molar value.
PROPERTY: pKd

BINDER: UUUUUU (ssRNA) [U6]
ENDPOINT_RESULT: 7.16
--
BINDER: AGAGAGA (ssRNA) [(AG)3A]
ENDPOINT_RESULT: 8.46
--
BINDER: AUAUAUA (ssRNA) [(AU)3A]
ENDPOINT_RESULT: 8.57
--
BINDER: AAAAAAAAAAAAAAAAAAAAAAAAAAA (ssRNA) [A27]
ENDPOINT_RESULT: 6.96
--
BINDER: AAAAAAAAAAAAAAAA (ssRNA) [A16]
ENDPOINT_RESULT: 8.38
